All figures here come from patent US10517889B2.

Tested on: human SMAD7 mRNA
run.description: Dose-dependent inhibition of human SMAD7 mRNA expression in Hep3B cells (Example 3, Study 1 and 2)
Format: cell-based
test.settings: electroporation, Study 1 (312.5-20000 nM)
Strand notation (5' to 3'): a small letter for the sugar, then the base; units joined by * are phosphorothioate-linked, units joined directly phosphodiester-linked; [ ] holds rarer units or linkages, { } end groups; capitals alone tell only the bases. e = 2'-O-(2-methoxyethyl) (MOE); [5mC] = 5-methylcytosine; d = 2'-deoxy (DNA)
Exercise: for every item that follows, state its recorded pIC50.
Numbers only, as −log10 of the molar value.

Dear reader, for each entry below, please note its pIC50.
1. 771387 (antisense eA*eG*e[5mC]*eA*eT*d[5mC]*dT*dG*dG*dA*d[5mC]*dA*dG*dT*d[5mC]*eT*eG*e[5mC]*eT*eG) [compound 771387]
2. 771574 (antisense e[5mC]*eG*e[5mC]*eT*eT*dG*dG*dG*dA*d[5mC]*dT*dG*d[5mC]*dA*dA*eA*e[5mC]*e[5mC]*eT*e[5mC]) [compound 771574]
3. 771632 (antisense eA*eA*eT*e[5mC]*e[5mC]*dT*dT*d[5mC]*dT*dT*dG*dG*dA*dG*dG*eG*eA*eA*eG*eG) [compound 771632]
4. 771397 (antisense eG*eA*eG*e[5mC]*eG*dG*d[5mC]*dG*dG*d[5mC]*dG*dG*d[5mC]*d[5mC]*d[5mC]*eG*eA*eG*eG*eG) [compound 771397]
5. 771808 (antisense e[5mC]*e[5mC]*e[5mC]*e[5mC]*eA*dA*dA*dG*dT*d[5mC]*d[5mC]*dA*d[5mC]*dG*d[5mC]*eT*e[5mC]*eA*eT*eG) [compound 771808]
6. 771831 (antisense e[5mC]*eG*eA*eT*e[5mC]*dA*dT*dT*dT*dT*d[5mC]*dT*dA*d[5mC]*dA*e[5mC]*e[5mC]*eT*eT*eT) [compound 771831]
7. 771777 (antisense e[5mC]*e[5mC]*e[5mC]*eT*e[5mC]*dA*dG*dT*d[5mC]*dT*d[5mC]*dA*dG*dA*dT*eA*eA*e[5mC]*eA*eG) [compound 771777]
8. 771825 (antisense e[5mC]*eT*e[5mC]*eT*e[5mC]*dA*dT*dT*dT*d[5mC]*dT*dG*dG*dA*dA*e[5mC]*e[5mC]*e[5mC]*eA*e[5mC]) [compound 771825]

[5.00, 4.89, 5.05, 4.82, 4.80, 4.80, 5.10, 4.82]

Dear reader, for each entry below, please note its pIC50.
1. 771386 (antisense e[5mC]*eT*eG*eG*eA*d[5mC]*dA*dG*dT*d[5mC]*dT*dG*d[5mC]*dT*dG*eT*eG*eG*eA*eT) [compound 771386]
2. 771733 (antisense eT*eG*eA*e[5mC]*eA*dG*d[5mC]*d[5mC]*dA*d[5mC]*dA*dA*dG*dT*d[5mC]*eA*e[5mC]*eA*eA*e[5mC]) [compound 771733]

1: 4.72; 2: 4.80

###

Tested on: human SMAD7 mRNA
run.description: Dose-dependent inhibition of human SMAD7 mRNA expression in Hep3B cells (Example 3, Study 1 and 2)
Type: cell-based
test.settings: 2220 nM, electroporation, approximately 16 hours, Study 2
Strand notation (5' to 3'): a small letter for the sugar, then the base; units joined by * are phosphorothioate-linked, units joined directly phosphodiester-linked; [ ] holds rarer units or linkages, { } end groups; capitals alone tell only the bases. k = constrained ethyl (cEt); [5mC] = 5-methylcytosine; d = 2'-deoxy (DNA)
value.kind: % inhibition of SMAD7 mRNA expression (%)
Answers are plain numbers, in %.

# substance, target.under.test, data.value
records = [
    ("799734 (antisense kT*k[5mC]*k[5mC]*d[5mC]*dA*dG*dG*dT*dG*dA*dA*d[5mC]*d[5mC]*k[5mC]*kA*k[5mC]) [compound 799734]", "human SMAD7 mRNA", 44),
    ("772578 (kG*kG*kT*dA*dT*d[5mC]*dT*dG*dG*dA*dG*dT*dA*kA*kG*kG; antisense) [compound 772578]", "human SMAD7 mRNA", 44),
    ("799722 (antisense kG*k[5mC]*kA*dG*dA*dG*dT*dG*dA*dG*dA*dA*d[5mC]*kA*kA*kG) [compound 799722]", "human SMAD7 mRNA", 38),
    ("799980 (k[5mC]*k[5mC]*kA*dA*d[5mC]*dG*dG*dT*dT*dG*d[5mC]*d[5mC]*dT*k[5mC]*kA*kT; antisense) [compound 799980]", "human SMAD7 mRNA", 22),
]

Dear reader, for each entry below, please note its % inhibition of SMAD7 mRNA expression.
1. 799486 (antisense k[5mC]*kA*kT*dA*dA*dT*dG*dA*d[5mC]*dT*dT*dA*dT*k[5mC]*k[5mC]*kA) [compound 799486]
2. 829762 (antisense k[5mC]*k[5mC]*kT*dT*d[5mC]*dA*dG*dA*dT*d[5mC]*d[5mC]*dG*d[5mC]*k[5mC]*kT*k[5mC]) [compound 829762]

1: 17; 2: 41

###

run.description: Hematology assays after subcutaneous administration in beagle dogs (Example 8)
Type: in vivo
test.settings: 30 mg/kg subcutaneous days 1, 3, 5, 8, 15, 22, 29
value.kind: Lymphocytes (%)
Numbers only, in %.

Example substances with recorded Lymphocytes:
# substance, unit.abbrev, data.value
data = [
    ("830037 (antisense CTATTGGCTGATCTGG; 3-10-3 cEt gapmer, further chemistry not given here) [compound 830037]", "%", 32),
    ("830121 (AGAATCAAGCCCTGGC; 3-10-3 cEt gapmer, further chemistry not given here) [compound 830121]", "%", 30),
    ("830025 (antisense TTTGTAAATCGAAAGC; 3-10-3 cEt gapmer, further chemistry not given here) [compound 830025]", "%", 34),
    ("829994 (GGAGGCAGGGCCGCGA; 3-10-3 cEt gapmer, further chemistry not given here) [compound 829994]", "%", 26),
]

Dear reader, for each entry below, please note its Lymphocytes.
1. 798781 (CGTAAGATTCACAGCA; 3-10-3 cEt gapmer, further chemistry not given here) [compound 798781]
2. 790615 (CCAATGAGAATGCTTC; 3-10-3 cEt gapmer, further chemistry not given here) [compound 790615]

1: 34; 2: 36

###

System: human SMAD7 mRNA
run.description: Antisense inhibition of human SMAD7 mRNA expression in Hep3B cells by 3-10-3 cEt gapmers, 10,000 nM, electroporation (Example 2)
Format: cell-based
test.settings: SMAD7 mRNA, Hep3B cells, 10,000 nM antisense oligonucleotide, electroporation, approximately 24 hours, primer probe set RTS5062, relative to untreated control cells
Strand notation (5' to 3'): a small letter for the sugar, then the base; units joined by * are phosphorothioate-linked, units joined directly phosphodiester-linked; [ ] holds rarer units or linkages, { } end groups; capitals alone tell only the bases. k = constrained ethyl (cEt); [5mC] = 5-methylcytosine; d = 2'-deoxy (DNA)
value.kind: % Inhibition (%)
Give bare numbers, in %.

Example substances with recorded % Inhibition:
# substance, % Inhibition / %
data = [
    ("800861 (antisense k[5mC]*k[5mC]*kA*dG*dT*dT*dG*dG*dT*dT*dT*dG*dA*kG*kA*kA) [compound 800861]", 32),
    ("790605 (kA*kT*k[5mC]*dA*dT*dA*d[5mC]*dG*dA*dG*dT*dG*dT*kA*kT*kG; antisense) [compound 790605]", 32),
]

Now look at this one.
Which % Inhibition value belongs to 800768 (antisense kG*k[5mC]*kG*d[5mC]*dT*d[5mC]*d[5mC]*dG*dT*dG*dG*d[5mC]*dA*kT*kG*k[5mC]) [compound 800768] ?
18

###

run.description: Plasma chemistry markers after subcutaneous administration in beagle dogs (Example 8)
test.settings: 30 mg/kg subcutaneous days 1, 3, 5, 8, 15, 22, 29, plasma at day 31
Exercise: for every item that follows, state its recorded AST.
Numbers only, in IU/L.

Example substances with recorded AST:
# substance, AST, IU/L
rows = [
    ("829994 (GGAGGCAGGGCCGCGA; 3-10-3 cEt gapmer, further chemistry not given here) [compound 829994]", 52),
    ("830037 (antisense CTATTGGCTGATCTGG; 3-10-3 cEt gapmer, further chemistry not given here) [compound 830037]", 1132),
]

Now look at this one.
Which AST value belongs to 830121 (AGAATCAAGCCCTGGC; 3-10-3 cEt gapmer, further chemistry not given here) [compound 830121] ?
383

###

Test system: human SMAD7 mRNA
run.description: Antisense inhibition of human SMAD7 mRNA expression in Hep3B cells by 5-10-5 MOE gapmers, single concentration, electroporation, RT-PCR (Example 1, Study 1 and 2)
Assay type: cell-based
test.settings: Study 2, electroporation with 15,000 nM antisense oligonucleotide, 5-10-5 MOE gapmers targeting SEQ ID NO: 1 and 2
Strand notation (5' to 3'): a small letter for the sugar, then the base; units joined by * are phosphorothioate-linked, units joined directly phosphodiester-linked; [ ] holds rarer units or linkages, { } end groups; capitals alone tell only the bases. e = 2'-O-(2-methoxyethyl) (MOE); [5mC] = 5-methylcytosine; d = 2'-deoxy (DNA)
value.kind: % Inhibition (%)
Answers are plain numbers, in %.

# substance, value.kind, data.value
measured = [
    ("771876 (antisense e[5mC]*eG*eA*eG*e[5mC]*dT*d[5mC]*d[5mC]*d[5mC]*dT*d[5mC]*d[5mC]*d[5mC]*dT*dG*eG*e[5mC]*e[5mC]*e[5mC]*e[5mC]) [compound 771876]", "% Inhibition", 0),
    ("771919 (antisense e[5mC]*eA*eA*eT*eG*dG*d[5mC]*dA*d[5mC]*dA*dG*dG*dG*dT*dG*eA*e[5mC]*e[5mC]*eA*eG) [compound 771919]", "% Inhibition", 29),
    ("771354 (antisense e[5mC]*eG*eG*e[5mC]*e[5mC]*dT*dT*d[5mC]*d[5mC]*dA*dT*d[5mC]*d[5mC]*dA*dA*e[5mC]*eT*e[5mC]*eT*e[5mC]) [compound 771354]", "% Inhibition", 39),
    ("771852 (antisense eA*eG*eA*eT*eT*dT*dA*dA*dA*dA*dT*dT*dA*dA*dA*eA*eA*eG*e[5mC]*eA) [compound 771852]", "% Inhibition", 0),
]

Now look at this one.
Which % Inhibition value belongs to 771695 (antisense eT*e[5mC]*eT*e[5mC]*e[5mC]*d[5mC]*dA*dG*dG*dA*dG*dG*dG*dT*dA*eT*eG*e[5mC]*eA*e[5mC]) [compound 771695] ?
22
